The reported measurements were obtained from patent US6914045B2.

# System: Enterococcus sp.
# test summary: in vitro antibacterial evaluation, MIC by broth dilution
# Assay type: cell-based
# cond: strain GC 4557; broth dilution, 18 hours at 35° C.
Exercise: state measured MIC Enterococcus faecium (GC 4557) for each of the compounds provided.
Answers are plain numbers, in µg/mL.

Worked cases, answers included:
CC(c1ccccc1)C1NC(=O)CNC(=O)C(CO)NC(=O)C(C(O)C2CNC(=N)N2C2OC(CO)C(O)C(O)C2O)NC(=O)C(C(O)C2CNC(=N)N2)NC(=O)C(Cc2ccc(OC3OC(CO)C(OC4OC5COC(c6ccc(-c7ccc(Cl)cc7)cc6)OC5C(O)C4O)C(O)C3O)cc2)NC1=O (stereo not shown) ... 8
CC(c1ccccc1)C1NC(=O)CNC(=O)C(CO)NC(=O)C(C(O)C2CNC(=N)N2C2OC(CO)C(O)C(O)C2O)NC(=O)C(C(O)C2CNC(=N)N2)NC(=O)C(Cc2ccc3oc(-c4ccc(Br)cc4)nc3c2)NC1=O (stereo not shown) ... 8
COc1cc(C2OCC3OC(OC4C(CO)OC(Oc5ccc(CC6NC(=O)C(C(C)c7ccccc7)NC(=O)CNC(=O)C(CO)NC(=O)C(C(O)C7CNC(=N)N7C7OC(CO)C(O)C(O)C7O)NC(=O)C(C(O)C7CNC(=N)N7)NC6=O)cc5)C(O)C4O)C(O)C(O)C3O2)ccc1[N+](=O)[O-] (stereo not shown) ... 2
COc1ccc(Oc2cccc(-c3nc4cc(CC5NC(=O)C(C(C)c6ccccc6)NC(=O)CNC(=O)C(CO)NC(=O)C(C(O)C6CNC(=N)N6C6OC(CO)C(O)C(O)C6O)NC(=O)C(C(O)C6CNC(=N)N6)NC5=O)ccc4o3)c2)cc1 (stereo not shown) ... 4

Please find the next compound below.
Exercise: Which MIC Enterococcus faecium (GC 4557) reading was recorded for the compound Cc1ccc(Oc2cccc(-c3nc4cc(CC5NC(=O)C(C(C)c6ccccc6)NC(=O)CNC(=O)C(CO)NC(=O)C(C(O)C6CNC(=N)N6C6OC(CO)C(O)C(O)C6O)NC(=O)C(C(O)C6CNC(=N)N6)NC5=O)ccc4o3)c2)cc1 (stereo not shown) ?
Solution: 4

###

# Tested on: Enterococcus sp.
# test summary: in vitro antibacterial evaluation, MIC by broth dilution
# Assay type: cell-based
# cond: broth dilution, inoculum 5×10^5 CFU/mL, 18 hours at 35° C.; strain ATCC 29212
Could you please mark 1.0 for values of MIC Enterococcus faecalis (ATCC 29212) below 8 µg/mL and 0.0 for values at or above it?

CC(c1ccccc1)C1NC(=O)CNC(=O)C(CO)NC(=O)C(C(O)C2CNC(=N)N2C2OC(CO)C(O)C(O)C2O)NC(=O)C(C(O)C2CNC(=N)N2)NC(=O)C(Cc2ccc(OC3OC(CO)C(OC4OC(COCc5ccc(OCc6ccccc6)cc5)C(O)C(O)C4O)C(O)C3O)cc2)NC1=O (centres unmarked) ... 1.0
CC(c1ccccc1)C1NC(=O)CNC(=O)C(CO)NC(=O)C(C(O)C2CNC(=N)N2C2OC(CO)C(O)C(O)C2O)NC(=O)C(C(O)C2CNC(=N)N2)NC(=O)C(Cc2ccc(OC3OC(CO)C(OC4OC(CO)C(O)C5OC(c6ccc(-c7ccsc7)cc6)OC45)C(O)C3O)cc2)NC1=O (centres unmarked) [Example 164a] ... 0.0
CC(c1ccccc1)C1NC(=O)CNC(=O)C(CO)NC(=O)C(C(O)C2CNC(=N)N2C2OC(CO)C(O)C(O)C2O)NC(=O)C(C(O)C2CNC(=N)N2)NC(=O)C(Cc2ccc(OC3OC(CO)C(OC4OC5COC(c6ccc(C(=O)c7ccccc7)cc6)OC5C(O)C4O)C(O)C3O)cc2)NC1=O (centres unmarked) ... 1.0
CC(c1ccccc1)C1NC(=O)CNC(=O)C(CO)NC(=O)C(C(O)C2CNC(=N)N2C2OC(CO)C(O)C(O)C2O)NC(=O)C(C(O)C2CNC(=N)N2)NC(=O)C(Cc2ccc(OC3OC(CO)C(OC4OC5COC6(CC7CCC6(C)C7(C)C)OC5C(O)C4O)C(O)C3O)cc2)NC1=O (centres unmarked) ... 1.0

Next up:
Exercise: Check if MIC Enterococcus faecalis (ATCC 29212) falls below 8 µg/mL for CC(c1ccccc1)C1NC(=O)CNC(=O)C(CO)NC(=O)C(C(O)C2CNC(=N)N2C2OC(CO)C(O)C(O)C2O)NC(=O)C(C(O)C2CNC(=N)N2)NC(=O)C(Cc2ccc(OC3OC(CO)C(OC4OC5COC6(CC(C)(C)CC(C)(C)C6)OC5C(O)C4O)C(O)C3O)cc2)NC1=O (centres unmarked) .
Solution: 1.0
